B1: FERM and PDZ domain-containing protein 4, residues 75 to 154; numbered along this chain, Q14CM0 (parent)
chain: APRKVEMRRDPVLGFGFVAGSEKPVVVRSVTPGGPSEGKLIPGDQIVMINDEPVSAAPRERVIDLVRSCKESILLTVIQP

Variants of: B1
assay overview: abundance fitness (aPCA) (normalised: wild type 0, dead -1); higher = more abundant; growth selection in yeast, the domain comes from the species named
condition set: Homo sapiens
Tag: label 1 if measured abundance fitness is not below -0.1, label 0 if it is.

{"mut": "D44Y", "assigned class": "label 0"}
{"mut": "P35W", "assigned class": "label 0"}
{"mut": "V77A", "assigned class": "label 0"}

Threshold query (abundance fitness >= -0.1) on "Q45P"
label 0

Is abundance fitness at least -0.1? Consider "L75I"
label 0

Could you verify whether the entry "A57P" shows abundance fitness of no less than -0.1?
label 0

Please indicate if the recorded abundance fitness for "P32K" meets or exceeds -0.1.
label 1

Can "S72M" be said to have abundance fitness at or above -0.1?
label 0

Does the reported abundance fitness for "R8I" fall at or above the -0.1 mark?
label 1

# bool: abundance fitness of "K70S" >= -0.1
label 1

State whether the measured abundance fitness reaches -0.1, counting equality as reaching it, for "E71L"
label 0

Form field: abundance fitness at least -0.1? Entry: "I63T"
label 1

Entry "R59H" : is its abundance fitness no less than -0.1?
label 1

Does abundance fitness meet or surpass -0.1 for "P53T" ?
label 1

Item "S68P" with abundance fitness of -0.1 or above?
label 0

Quick check: does "K39D" have abundance fitness greater than or equal to -0.1?
label 0

Evaluate "G43Y" : abundance fitness at minimum -0.1?
label 0

Is abundance fitness at least -0.1? Consider "P80M"
label 0

Answer whether abundance fitness of "V5K" is greater than or equal to -0.1.
label 0

Could you verify whether the entry "I78L" shows abundance fitness of no less than -0.1?
label 1
